Tested on: SJSA-1
Assay: GPX4 inhibition assay (ferrostatin rescue), SJSA-1
Assay type: cell-based
Details: Homo sapiens; SJSA-1 cells, without ferrostatin; read-out: SJSA-1 (IC50, μM) Without Ferrostatin
MEASURED_QUANTITY: IC50 (µM)
Numeric answer only, unit µM assumed.

Data request: Param item = O=C(CCl)Nc1nc2ccccc2n1-c1ccc(C(=O)NC2CC2)nc1 ; retrieve measured IC50.
Data returned: 0.022

---

Test system: SJSA-1
Experiment: Cell proliferation (Alamar Blue) assay, SJSA-1
Type: cell-based
Conditions: Homo sapiens, SJSA-1, 24 h, SJSA-1 cells, 24 h compound incubation
Listing: IC50 of selected molecules
Numeric answer only, unit µM assumed.

Some solved cases for reference:
Data request: API: value(readout= IC50, system= SJSA-1, query= O=C(CCl)Nc1nc2ccccc2n1Cc1ccc(N2CCOCC2)cn1 [Compound 10] )
Data returned: 0.651

Data request: API: value(readout= IC50, system= SJSA-1, query= O=C(CCl)Nc1nc2ccccc2n1-c1ccc(C(=O)NC2CC2)nc1 [Compound 8] )
Data returned: 0.032

Data request: API: value(readout= IC50, system= SJSA-1, query= O=C(CCl)Nc1nc2ccccc2n1Cc1ccc(C(=O)NC2CCC2)cc1 [Compound 12] )
Data returned: 0.366

Data request: API: value(readout= IC50, system= SJSA-1, query= O=C(CCl)Nc1nc2ccccc2n1-c1ccc(C(=O)NC2CC2)cc1 [Compound 7] )
Data returned: 0.083

***
Data request: API: value(readout= IC50, system= SJSA-1, query= O=C(CCl)Nc1nc2ccccc2n1-c1ccc(N2CCOCC2)nc1 [Compound 6] )
Data returned: 0.003

Data request: API: value(readout= IC50, system= SJSA-1, query= O=C(CCl)Nc1nc2ccccc2n1-c1ccc(N2CCOCC2)cc1 [Compound 1] )
Data returned: 0.012
